Test system: barnyardgrass (Echinochloa crus-galli)
method-summary: Test B flooded paddy test, visual rating 0-100
particulars: Flood, 250 g ai/ha, applied to paddy water, rated after 13 to 15 days
property-measured: Barnyardgrass plant response rating (0 to 100 scale)
Give the value as a plain number.

Q. Please indicate recorded Barnyardgrass plant response rating (0 to 100 scale) of CC1=[N+]([O-])C(C(=O)Nc2cccc(F)c2F)C(c2cccc(Br)n2)C1 (racemic) measured with barnyardgrass (Echinochloa crus-galli).
A. 15

Q. Answer briefly: Barnyardgrass plant response rating (0 to 100 scale) recorded on barnyardgrass (Echinochloa crus-galli) for CC1=[N+]([O-])C(C(=O)Nc2ccncc2C(F)(F)F)C(c2ccc(C(F)(F)F)cc2)C1 (racemic)
A. 30

Q. Give Barnyardgrass plant response rating (0 to 100 scale) only, for CC1=[N+]([O-])C(C(=O)Nc2cccc(F)c2F)C(c2cccc(Oc3ncc(Cl)cn3)c2)C1 (racemic) , using barnyardgrass (Echinochloa crus-galli) data.
A. 0

Q. Please look at CC1=[N+]([O-])C(C(=O)Nc2cccc(F)c2F)C(c2cccc(C#N)c2)C1 (racemic) and tell me its recorded Barnyardgrass plant response rating (0 to 100 scale) on barnyardgrass (Echinochloa crus-galli).
A. 50

Q. Provide Barnyardgrass plant response rating (0 to 100 scale), system barnyardgrass (Echinochloa crus-galli), entry CC1=[N+]([O-])C(C(=O)Nc2cccc(F)c2F)C(c2cc(C)c(F)c(C)c2)C1 (racemic)
A. 0

Q. Supply Barnyardgrass plant response rating (0 to 100 scale) measured with barnyardgrass (Echinochloa crus-galli) for CC1=[N+]([O-])C(C(=O)Nc2cccc(F)c2F)C(c2cc(F)c(F)c(F)c2)C1 (stereo not drawn) .
A. 80

Q. Using barnyardgrass (Echinochloa crus-galli) as the test system, report measured Barnyardgrass plant response rating (0 to 100 scale) of CC1=[N+]([O-])C(C(=O)Nc2cccc(F)c2F)C(c2cccc(F)c2C)C1 (racemic) .
A. 75

Q. Give reported Barnyardgrass plant response rating (0 to 100 scale) for CC1=[N+]([O-])C(C(=O)Nc2cccc(F)c2F)C(c2ccc(F)c(Oc3ccc(Cl)nc3)c2)C1 (racemic) (barnyardgrass (Echinochloa crus-galli))
A. 0

Q. Identify measured Barnyardgrass plant response rating (0 to 100 scale) obtained with barnyardgrass (Echinochloa crus-galli) for CC1=[N+]([O-])C(C(=O)Nc2cccc(F)c2F)C(c2cc(C)cc(Cl)c2)C1 (stereo not drawn) .
A. 60

Q. // output Barnyardgrass plant response rating (0 to 100 scale); input CC1=[N+]([O-])[C@@H](C(=O)Nc2cccc(F)c2F)[C@H](c2cccc(Oc3ncc(F)cc3F)c2)C1 ; system barnyardgrass (Echinochloa crus-galli)
A. 0

Q. Report measured Barnyardgrass plant response rating (0 to 100 scale) on barnyardgrass (Echinochloa crus-galli); entry: CC1=[N+]([O-])C(C(=O)Nc2cccc(F)c2F)C(c2c(F)cccc2Cl)C1 (racemic)
A. 40

Q. Consider the molecule CC1=[N+]([O-])C(C(=O)Nc2cccc(F)c2F)C(c2ccccc2)C1 (stereo not drawn) [Compound 97] tested on barnyardgrass (Echinochloa crus-galli); state its Barnyardgrass plant response rating (0 to 100 scale).
A. 70

Q. Supply Barnyardgrass plant response rating (0 to 100 scale) measured with barnyardgrass (Echinochloa crus-galli) for CC1=[N+]([O-])C(C(=O)Nc2cccc(F)c2F)C(c2cc(F)cc(Oc3ccc(Cl)nc3)c2)C1 (racemic) .
A. 0

Q. Give reported Barnyardgrass plant response rating (0 to 100 scale) for CC1=[N+]([O-])C(C(=O)Nc2cccc(F)c2F)C(c2cc(C(F)(F)F)cc(C(F)(F)F)c2)C1 (racemic) (barnyardgrass (Echinochloa crus-galli))
A. 0

Q. Look up and report measured Barnyardgrass plant response rating (0 to 100 scale) (barnyardgrass (Echinochloa crus-galli)) for the following molecule: CC1=[N+]([O-])C(C(=O)Nc2cccc(F)c2F)C(c2cccc(Cl)n2)C1 (stereo not drawn)
A. 0

Numbers sourced from patent US11498899B2.
